Reference source for all entries: patent US20240109881A1

testedSystem: IRAK4 (Homo sapiens)
Construct: endogenous in cells; host or cells: THP-1 cells
assayComment: ALE THP1 HTRF (Advanced Lipoxidation End Product THP1 Homogeneous Time Resolved Fluorescence)
Type: cell-based
measurementContext: THP1 cells
readoutLabel: ALE THP1 HTRF YMIN (%)

| compound | readoutLabel | displayUnit | dataValue |
| --- | --- | --- | --- |
| C[C@H](C#N)Nc1cc(-n2ncc3cc(C#N)cnc32)ncc1C(=O)N[C@H]1CC[C@H](CCN2CCC(c3ccc(C4CCC(=O)NC4=O)cc3)CC2)CC1 (stereo partly drawn) [P-143] | ALE THP1 HTRF YMIN | % | 6.5 |
| C[C@H]1CN(c2ccc(C3CCC(=O)NC3=O)cc2)CCN1CCC1CCC(NC(=O)c2cnc(-n3ncc4cc(C#N)cnc43)cc2NC2CCCC2)CC1 (stereo partly drawn) [P-62] | ALE THP1 HTRF YMIN | % | 6.6 |
| N#Cc1cnc2c(cnn2-c2cc(NC34CC(C3)C4)c(C(=O)NC3CCC(CCN4CCN(c5ccc(C6CCC(=O)NC6=O)cc5)CC4)CC3)cn2)c1 (stereo not drawn) [P-92] | ALE THP1 HTRF YMIN | % | 11.3 |
| N#Cc1cnc2c(cnn2-c2cc(NC3CCCC3)c(-n3cc([C@H]4CC[C@H](CN5CCN(c6ccc7c(c6)C(=O)N(C6CCC(=O)NC6=O)C7)CC5)CC4)nn3)cn2)c1 (stereo partly drawn) [P-55] | ALE THP1 HTRF YMIN | % | 10.3 |

(I) N#Cc1cnc2c(cnn2-c2cc(NC3CCCC3)c(C(=O)N[C@H]3CC[C@H](CN4CCN(c5ccc6c(c5)C(=O)N(C5CCC(=O)NC5=O)C6)CC4)CC3)cn2)c1 (stereo partly drawn) [P-24]
(II) N#Cc1cnc2c(cnn2-c2cc(NC3CCCC3)c(-n3cc([C@H]4CC[C@H](CCN5CCN(c6ccc(C7CCC(=O)NC7=O)cc6)CC5)CC4)nn3)cn2)c1 (stereo partly drawn) [P-87]
Ask | Which shows the larger ALE THP1 HTRF YMIN value: I or II ? Answer = label.
Reply | I
(I: 35.3%, II: 10.5%)

====

testedSystem: IRAK4 (Homo sapiens, UniProt Q9NWZ3)
Construct: endogenous in cells; host or cells: THP-1 cells
assayComment: LVL THP1 HTRF (THP1 Homogeneous Time Resolved Fluorescence)
Type: cell-based
measurementContext: THP1 cells, 18 h incubation with compound
readoutLabel: LVL THP1 HTRF YMIN (%)

| compound | readoutLabel | dataValue |
| --- | --- | --- |
| C[C@H](C#N)Nc1cc(Nc2ncc(C#N)cc2Cl)ncc1-n1cc([C@H]2CC[C@H](CCN3CCN(c4ccc(N5CCC(=O)NC5=O)cc4)[C@H](C)C3)CC2)nn1 | LVL THP1 HTRF YMIN | 2.2 |

(P) C[C@H](C#N)Nc1cc(-n2ncc3cc(C#N)cnc32)ncc1-n1cc([C@H]2CC[C@H](CCN3CCC4(C3)CN(c3ccc(N5CCC(=O)NC5=O)cc3)C4)CC2)nn1
(Q) Cc1cc(C2CCC(=O)NC2=O)ccc1N1CCN(CC[C@H]2CC[C@H](NC(=O)c3cnc(-n4ncc5cc(C#N)c(N)nc54)cc3N[C@H](C)C#N)CC2)C[C@H]1C (some centres unmarked)
(R) C[C@H](C#N)Nc1cc(-n2ncc3cc(C#N)cnc32)ncc1-n1cc([C@H]2CC[C@H](CCN3CCN(c4ccc5c(N6CCC(=O)NC6=O)nn(C)c5c4)CC3)CC2)nn1
(S) C[C@H](C#N)Nc1cc(-n2ncc3cc(C#N)cnc32)ncc1-n1cc([C@H]2CC[C@H](CCN3CC(c4ccc(N5CCC(=O)NC5=O)cc4)C3)CC2)nn1
Ask | Sort (4 compounds) by LVL THP1 HTRF YMIN: min first. Sort and list the labels as requested.
Reply | Q, R, P, S

====

testedSystem: IRAK4 (Homo sapiens)
Construct: endogenous in cells; host or cells: THP-1 cells
Sequence (Q9NWZ3 1-460): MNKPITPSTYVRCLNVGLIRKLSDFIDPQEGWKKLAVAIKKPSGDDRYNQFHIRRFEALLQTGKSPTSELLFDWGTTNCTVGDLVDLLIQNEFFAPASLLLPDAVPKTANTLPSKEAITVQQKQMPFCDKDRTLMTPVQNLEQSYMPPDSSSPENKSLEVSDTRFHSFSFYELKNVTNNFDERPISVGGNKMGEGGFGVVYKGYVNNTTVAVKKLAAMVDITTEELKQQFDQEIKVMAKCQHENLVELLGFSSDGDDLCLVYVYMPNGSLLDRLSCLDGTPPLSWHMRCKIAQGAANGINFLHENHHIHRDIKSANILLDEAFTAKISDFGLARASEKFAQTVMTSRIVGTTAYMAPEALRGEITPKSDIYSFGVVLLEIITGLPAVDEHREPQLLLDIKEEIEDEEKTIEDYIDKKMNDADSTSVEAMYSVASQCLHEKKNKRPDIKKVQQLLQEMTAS
assayComment: ALE THP1 HTRF (Advanced Lipoxidation End Product THP1 Homogeneous Time Resolved Fluorescence)
Format: cell-based
measurementContext: THP1 cells
Description: For Homogenous Time Resolved Fluorescence (HTRF) assays, a Cisbio HTRF kit was used, which included: Lysis Buffer #1 4×, Blocking Reagent #3 100×, 20× Antibody 1 (Anti-IRAK4 d2), 20× Antibody 2 (Anti-IRAK4 k), and Detection Buffer. 4× Lysis Buffer was stored at 4° C. […] Cells were lysed at room temperature for 45 min with shaking. […] The samples were analyzed by a plate reader (Envision, PerkinElmer) using the Desnor 384 HTRF program.
readoutLabel: ALE THP1 HTRF YMIN (%)

Answered examples (4):
| compound | ALE THP1 HTRF YMIN [%] |
| --- | --- |
| N#Cc1cc2cnn(-c3cc(NC4CC4)c(-n4cc([C@H]5CC[C@H](CCN6CCN(c7ccc(C8CCC(=O)NC8=O)cc7)CC6)CC5)nn4)cn3)c2nc1N (stereo partly drawn) | 6.4 |
| CC1(Nc2cc(-n3ncc4cc(C#N)c(N)nc43)ncc2-n2cc([C@H]3CC[C@H](CCN4CCN(c5ccc(C6CCC(=O)NC6=O)cc5)CC4)CC3)nn2)CC1 (stereo partly drawn) | 10.0 |
| N#Cc1cnc2c(cnn2-c2cc(NC3CC3)c(C(=O)N[C@H]3CC[C@H](CCN4CCC5(CC4)CN(c4cccc(C6CCC(=O)NC6=O)c4)C5)CC3)cn2)c1 (stereo partly drawn) | 11.6 |
| N#Cc1cnc2c(cnn2-c2cc(NCCC(F)(F)F)c(C(=O)N[C@H]3CC[C@H](CCN4CCN(c5ccc(C6CCC(=O)NC6=O)cc5)CC4)CC3)cn2)c1 (stereo partly drawn) | 9.9 |

(1) C[C@H](C#N)Nc1cc(-n2ncc3cc(C#N)cnc32)ncc1C(=O)N[C@H]1CC[C@H](CCN2C[C@H](C)N(c3ccc(C4CCC(=O)NC4=O)cc3)C[C@@H]2C)CC1 (stereo partly drawn)
(2) CN(C1CCN(c2ccc3c(c2)C(=O)N(C2CCC(=O)NC2=O)C3)CC1)[C@H]1CC[C@H](n2cc(-c3cnc(-n4ncc5cc(C#N)cnc54)cc3NC3CCCC3)nn2)CC1 (stereo partly drawn)
Ask | Higher ALE THP1 HTRF YMIN: 1 or 2 ? I would appreciate it if you answered with the label of your choice.
Reply | 2
(2: 28.4%, 1: 16.0%)

====

testedSystem: IRAK4 (Homo sapiens)
Construct: endogenous in cells; host or cells: THP-1 cells
assayComment: LVL THP1 HTRF (THP1 Homogeneous Time Resolved Fluorescence)
Format: cell-based
measurementContext: THP1 cells, 18 h incubation with compound, read-out: LVL THP1 HTRF EC50
readoutLabel: DC50 (nM)

Known DC50 results, listed for orientation:
| compound | readoutLabel | dataValue |
| --- | --- | --- |
| C[C@H](C#N)Nc1cc(-n2ncc3cc(C#N)c(N)nc32)ncc1C(=O)N[C@H]1CC[C@H](CCN2CCN(c3ccc(C4CCC(=O)NC4=O)cc3Cl)[C@H](C)C2)CC1 (some centres unmarked) [P-168] | DC50 | 3 |
| C[C@H](C#N)Nc1cc(-n2ncc3cc(C#N)cnc32)ncc1-n1cc(C2CCC(CCN3C[C@H](C)N(c4ccc([C@@]5(C)CCC(=O)NC5=O)cc4)C[C@H]3C)CC2)nn1 (some centres unmarked) [P-244] | DC50 | 56 |
| C[C@H](C#N)Nc1cc(-n2ncc3cc(C#N)cnc32)ncc1-n1cc([C@H]2CC[C@H](CCN3CCN(c4ccc5c(N6CCC(=O)NC6=O)nn(C)c5c4)[C@@H](C)C3)CC2)nn1 [P-502] | DC50 | 1.2 |

(P) CC[C@H]1CN(CC[C@H]2CC[C@H](c3cn(-c4cnc(-n5ncc6cc(C#N)cnc65)cc4N[C@H](C)C#N)nn3)CC2)CCN1c1ccc(C2CCC(=O)NC2=O)cc1 (some centres unmarked) [P-442]
(Q) Cc1cc(C2CCC(=O)NC2=O)ccc1N1CCN(CC[C@H]2CC[C@H](NC(=O)c3cnc(-n4ncc5cc(C#N)c(N)nc54)cc3N[C@H](C)C#N)CC2)C[C@H]1C (some centres unmarked) [P-170]
Ask | Param metric = DC50; output whichever of P , Q has the minimum value. Please reply using the label of the selected record.
Reply | P

(I) C[C@H](C#N)Nc1cc(Nc2ncc(C#N)cn2)ncc1-n1cc([C@H]2CC[C@H](CCN3CCN(c4ccc(N5CCC(=O)NC5=O)cc4)CC3)CC2)nn1 [P-389]
(II) C[C@H](C#N)Nc1cc(-n2ncc3cc(C#N)c(N)nc32)ncc1-n1cc(C2CCC(CCN3CCN(c4ccc(C5CCC(=O)NC5=O)cc4)[C@H](C)C3)CC2)nn1 (some centres unmarked) [P-216]
(III) C[C@H](C#N)Nc1cc(-n2ncc3cc(C#N)cnc32)ncc1-n1cc([C@H]2CC[C@H](CCN3CCN(c4ncc(N5CCC(=O)NC5=O)cn4)[C@H](C)C3)CC2)nn1 [P-438]
(IV) C[C@H](C#N)Nc1cc(-n2ncc3cc(C#N)cnc32)ncc1-n1cc([C@H]2CC[C@H](CCN3CCC(c4ccc(N5CCC(=O)NC5=O)cc4)C(F)(F)C3)CC2)nn1 (some centres unmarked) [P-401]
Ask | Please list these compounds in decreasing order of DC50. Write the labels, ordered according to the request.
Reply | I, IV, III, II

(I) C[C@H](C#N)Nc1cc(-n2ncc3cc(C#N)c(N)nc32)ncc1-n1cc([C@H]2CC[C@H](CCN3CCN(c4ccc(N5CCC(=O)NC5=O)cn4)[C@H](C)C3)CC2)nn1 [P-463]
(II) C[C@H](C#N)Nc1cc(-n2ncc3cc(C#N)cnc32)ncc1-n1cc([C@H]2CC[C@H](CCN3CCN(c4ccc(N5CCC(=O)NC5=O)cc4)CC3)CC2)nn1 [P-366]
Ask | I or II : whose DC50 is greater? Give the label of your selection.
Reply | II
